- TGT: β-secretase(BACE) (Homo sapiens, UniProt P56817)
- Construct: purchased Panvera
- Sequence (P56817 46-501): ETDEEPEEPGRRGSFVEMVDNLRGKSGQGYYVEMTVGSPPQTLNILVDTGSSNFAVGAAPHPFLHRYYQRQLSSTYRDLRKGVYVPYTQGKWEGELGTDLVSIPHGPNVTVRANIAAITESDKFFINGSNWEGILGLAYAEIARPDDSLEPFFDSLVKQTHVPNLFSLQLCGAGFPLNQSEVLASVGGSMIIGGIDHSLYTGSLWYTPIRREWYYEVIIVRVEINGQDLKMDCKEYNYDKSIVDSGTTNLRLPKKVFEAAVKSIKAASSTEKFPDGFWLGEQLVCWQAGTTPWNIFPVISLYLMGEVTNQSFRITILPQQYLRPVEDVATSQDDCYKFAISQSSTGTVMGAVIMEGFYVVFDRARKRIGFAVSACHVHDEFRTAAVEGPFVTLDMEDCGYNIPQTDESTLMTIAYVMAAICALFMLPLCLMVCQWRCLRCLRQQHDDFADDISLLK
- METHOD: BACE FS1% Inhibition Assay
- Format: biochemical
- ASSAY SETUP: 3 μM test compound; FS1 substrate; read-out: % Inhibition (FS) 3 μM
Would you kindly list inhibition at 3 µM for each of these molecules?

Query string: Quick check: inhibition at 3 µM of CN(C(=O)CCCCN1Cc2cc(Oc3cccc(NS(=O)(=O)c4ccccc4)c3)ccc2N=C1N)C1CCCCC1 ?
Result string: 109%

Query string: # lookup: inhibition at 3 µM of NC1=Nc2ccc(Oc3ccccc3)cc2CN1C(CC(=O)NC1CC2CCC1C2)C1CCCCC1 (stereo not shown)
Result string: 94%

Query string: For CN(C(=O)c1cccc(CN2Cc3cc(-c4ccccc4S(=O)(=O)NC(C)(C)C)ccc3N=C2N)c1)C1CCCCC1 , what is its reported inhibition at 3 µM?
Result string: 60%

Query string: // lookup inhibition at 3 µM for NC1=Nc2ccc(Oc3ccccc3)cc2CN1CCNC(=O)NC1CCCCC1
Result string: 106%

Query string: Look up inhibition at 3 µM for this molecule: CC(C)[C@@H](CCC(=O)N(C)C1CCCCC1)N1Cc2cc(Oc3ccccc3)ccc2N=C1N
Result string: 30%

Query string: Look up inhibition at 3 µM: Cc1ccc(C(CCC(=O)N(C)C2CCCCC2)N2Cc3cc(Oc4ccccc4)ccc3N=C2N)cc1 (stereo not shown)
Result string: 111%

Query string: Name the recorded inhibition at 3 µM for CC(C)C(=O)NCCN1Cc2cc(Oc3ccccc3)ccc2N=C1N .
Result string: 103%
